tested on: TAB165; assay: qHTS profiling for inhibitors of Plasmodium falciparum proliferation (AID 504749); further: nearly all actives have a fitted effect of over 60% in size; details: P. falciparum in erythrocytes, SYBR Green DNA, 72 h; series mostly up to 28.7 µM
Records with an inconclusive call do not appear. Calls of active or inactive are those of the source. The call rests on the fitted dose curve; in most records, active means well fitted inhibition curve with a large enough effect; inconclusive means small, poorly fitted or top-dose-only effect; inactive means flat fitted curve, though single readings scatter.
Labels: Y (active), N (inactive)

# Chem smiles, Qualitative label
rows = [
    ("COc1ccccc1N1CCN(CCCCNC(=O)c2ccc(-c3ccc(C(C)=O)cc3)cc2)CC1", "N"),
    ("Cc1ccc(S(=O)(=O)NC(=O)NC2CCCC2)cc1", "N"),
    ("CN1CCc2cccc3c2[C@H]1Cc1ccc(O)c(O)c1-3", "Y"),
    ("CCOC(=O)Nc1ccc2c(c1)N(C(=O)CCN1CCOCC1)c1ccccc1S2", "N"),
    ("COc1cc(C(=S)N2CCOCC2)ccc1O", "N"),
    ("CC(=O)Nc1ccc(OC(=O)c2ccccc2OC(C)=O)cc1", "N"),
    ("O=C(O)CCC(=O)Nc1ccc(S(=O)(=O)Nc2nccs2)cc1", "N"),
    ("COc1cc(C(=O)NCc2ccc(OCCN(C)C)cc2)cc(OC)c1OC", "N"),
    ("CCCCCCCCCCCCCC(=O)OC(C)C", "N"),
    ("Cn1c(=O)c2[nH]c(Br)nc2n(C)c1=O", "N"),
    ("Cc1cc(CC(=O)O)c(C)n1-c1ccc(Cl)cc1", "Y"),
]
